# Target under test: human DHFR
# Test description: Inhibition of human DHFR (I50-derived Ki)
# Format: biochemical

Molecule | Ki (human)/Ki (P. falc. wt)
NC1=NCN(c2ccc(OCc3ccccc3)cc2)C(N)=N1 | 1.96
NC1=NC(c2cccc(OCc3ccccc3)c2)N(c2ccc(OCc3ccccc3)cc2)C(N)=N1 (centres unmarked) | 245
NC1=NC(c2ccc(O)cc2)N(c2cccc(Cl)c2)C(N)=N1 (centres unmarked) [(Ib) R2=4-hydroxyphenyl] | 0.95
NC1=NC(c2cccc(OCc3ccccc3)c2)N(c2cccc(Cc3ccccc3)c2)C(N)=N1 (centres unmarked) | 127
CCCCOc1ccc(C2N=C(N)N=C(N)N2c2ccc(Cl)cc2)cc1 (centres unmarked) | 400
NC1=NC(c2cccc(Oc3ccccc3)c2)N(c2cccc(Cl)c2)C(N)=N1 (centres unmarked) | 1.8
NC1=NC(c2ccc(F)cc2)N(c2ccc(Cl)cc2)C(N)=N1 (centres unmarked) | 1227
CC(C)c1ccc(C2N=C(N)N=C(N)N2c2ccc(Cl)cc2)cc1 (centres unmarked) | 5289
CCOc1ccc(C2N=C(N)N=C(N)N2c2ccc(Cl)cc2)cc1 (centres unmarked) | 1153
Cl.NC1=NCN(c2ccccc2)C(N)=N1 | 4.35
NC1=NCN(c2cccc(Cc3ccccc3)c2)C(N)=N1 | 7.0
NC1=NC(c2ccc(Cl)cc2)N(c2ccc(Cl)cc2)C(N)=N1 (centres unmarked) | 395
Cl.NC1=NCN(c2ccc(Cl)cc2)C(N)=N1 | 49.7
NC1=NC(c2cccc(Oc3ccccc3)c2)N(c2ccc(OCc3ccccc3)cc2)C(N)=N1 (centres unmarked) | 11

====

# Target under test: human DHFR
# Test description: Inhibition of human DHFR (I50-derived Ki)
# Format: biochemical
Rule: Ki (human)/Ki (T. cruzi) below 8 gives TRUE, anything at or above gives FALSE.

Compound | Class label
NC1=NC(c2ccc(O)cc2)N(c2cccc(Cl)c2)C(N)=N1 (stereo not shown) [(Ib) R2=4-hydroxyphenyl] | TRUE
Cl.NC1=NCN(c2ccc(Cl)cc2)C(N)=N1 [(Ia) R2=H] | FALSE
CCCCOc1ccc(C2N=C(N)N=C(N)N2c2ccc(OCc3ccccc3)cc2)cc1 (stereo not shown) | TRUE
NC1=NC(c2cccc(Oc3ccccc3)c2)N(c2cccc(Cl)c2)C(N)=N1 (stereo not shown) [(Ib) R2=3-phenoxyphenyl] | TRUE
COc1ccc(C2N=C(N)N=C(N)N2c2ccc(Cl)cc2)cc1 (stereo not shown) [(Ia) R2=p-methoxyphenyl] | FALSE
NC1=NC(c2cccc(OCc3ccccc3)c2)N(c2cccc(COc3cc(Cl)c(Cl)cc3Cl)c2)C(N)=N1 (stereo not shown) [(Id1) R2=3-benzyloxyphenyl] | TRUE
NC1=NCN(c2cccc(Cc3ccccc3)c2)C(N)=N1 [R2=H, X=H, Y=Bn] | TRUE
NC1=NC(c2cccc(O)c2)N(c2ccc(Cl)cc2)C(N)=N1 (stereo not shown) [(Ia) R2=m-hydroxyphenyl] | FALSE
NC1=NC(c2cccc(OCc3ccccc3)c2)N(c2cccc(Cc3ccccc3)c2)C(N)=N1 (stereo not shown) [R2=3-BnOC6H4, X=H, Y=Bn] | FALSE
CCOc1ccc(C2N=C(N)N=C(N)N2c2ccc(Cl)cc2)cc1 (stereo not shown) [(Ia) R2=p-ethoxyphenyl] | FALSE
COc1ccc(C2N=C(N)N=C(N)N2c2ccc(F)cc2)cc1 (stereo not shown) [R2=4-MeOC6H4, X=F, Y=H] | FALSE
NC1=NC(c2ccc(Cl)cc2)N(c2ccc(Cl)cc2)C(N)=N1 (stereo not shown) [(Ia) R2=p-chlorophenyl] | FALSE
NC1=NC(c2cccc(Oc3ccccc3)c2)N(c2ccc(OCc3ccccc3)cc2)C(N)=N1 (stereo not shown) | TRUE
NC1=NC(c2ccc(F)cc2)N(c2ccc(Cl)cc2)C(N)=N1 (stereo not shown) [(Ia) R2=p-fluorophenyl] | FALSE
CCCCOc1ccc(C2N=C(N)N=C(N)N2c2ccc(Cl)cc2)cc1 (stereo not shown) [(Ia) R2=p-butyloxyphenyl] | FALSE
CC(C)c1ccc(C2N=C(N)N=C(N)N2c2ccc(Cl)cc2)cc1 (stereo not shown) [(Ia) R2=p-isopropylphenyl] | FALSE
NC1=NCN(c2ccc(Cl)c(Cl)c2)C(N)=N1 [(Ic) R2=H] | TRUE
NC1=NCN(c2ccc(OCc3ccccc3)cc2)C(N)=N1 [R2=H, X=BnO, Y=H] | TRUE

====

# Target under test: A16V.S108T mutant (mut) of DHFR from Plasmodium falciparum (Plasmodium falciparum, UniProt A7UD81, A16V/S108T)
# Construct: The Dihydrofolate Reductase Domain of Plasmodium falciparum Thymidylate Synthase-Dihydrofolate Reductase; made in house
# Sequence (A7UD81 1-231 A16V/S108T): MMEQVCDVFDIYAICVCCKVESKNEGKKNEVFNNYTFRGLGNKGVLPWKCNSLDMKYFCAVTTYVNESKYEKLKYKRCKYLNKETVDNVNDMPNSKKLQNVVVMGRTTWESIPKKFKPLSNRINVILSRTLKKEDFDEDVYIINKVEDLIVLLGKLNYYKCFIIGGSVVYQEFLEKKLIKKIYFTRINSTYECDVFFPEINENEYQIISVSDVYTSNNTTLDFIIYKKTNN
# Test description: biochemical
Where a name gives a salt, the structure may show the parent alone.
Rule: Ki below 40 nM gives YES, anything at or above gives NO.

Compound | Class label
NC1=NC(c2cccc(Oc3ccccc3)c2)N(c2cccc(-c3ccccc3)c2)C(N)=N1 (centres unmarked) | YES
CCCOc1ccc(C2N=C(N)N=C(N)N2c2cccc(Cl)c2)cc1 (centres unmarked) | YES
NC1=NC(c2cccc(OCc3ccccc3)c2)N(c2cccc(OCc3ccccc3)c2)C(N)=N1 (centres unmarked) | YES
NC1=NC(c2ccc(-c3ccccc3)cc2)N(c2ccc(Cl)cc2)C(N)=N1 (centres unmarked) | YES
NC1=NC(c2ccccc2)N(c2ccc(Cl)cc2)C(N)=N1 (centres unmarked) [(Ia) R2=phenyl, hydrochloride] | NO
NC1=NC(c2cccc(Oc3ccc(Cl)cc3)c2)N(c2cccc(Cl)c2)C(N)=N1 (centres unmarked) | YES
CCOc1ccc(C2N=C(N)N=C(N)N2c2ccc(Cl)cc2)cc1 (centres unmarked) | YES
NC1=NC(c2cccc(OCc3ccccc3)c2)N(c2cccc(Cc3ccccc3)c2)C(N)=N1 (centres unmarked) | YES
CCCCOc1ccc(C2N=C(N)N=C(N)N2c2ccc(Cl)cc2)cc1 (centres unmarked) | YES
COc1ccc(C2N=C(N)N=C(N)N2c2ccc(Cl)cc2)cc1OC (centres unmarked) | NO
COc1ccc(C2N=C(N)N=C(N)N2c2cccc(Cl)c2)cc1OC (centres unmarked) | NO
COc1cccc(C2N=C(N)N=C(N)N2c2ccc(Cl)cc2)c1 (centres unmarked) | NO
CC(C)c1ccc(C2N=C(N)N=C(N)N2c2ccc(Cl)cc2)cc1 (centres unmarked) | YES
NC1=NC(c2ccc(OCc3ccccc3)cc2)N(c2ccc(Cl)cc2)C(N)=N1 (centres unmarked) | YES

====

Reported Ki values for a set of compounds
# Target under test: human DHFR (Homo sapiens)
# Construct: made in house; host or cells: E. coli M15
# Sequence (P00374 1-187): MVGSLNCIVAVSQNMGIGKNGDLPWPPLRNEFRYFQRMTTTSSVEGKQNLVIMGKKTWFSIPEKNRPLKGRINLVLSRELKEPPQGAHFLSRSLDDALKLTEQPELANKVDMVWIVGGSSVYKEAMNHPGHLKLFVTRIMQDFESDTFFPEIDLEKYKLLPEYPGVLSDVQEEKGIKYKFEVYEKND
# Test description: Inhibition of human DHFR (I50-derived Ki)
# Assay type: biochemical
# Test parameters: Human Ki (I50)(nM), human DHFR

Compound | Target under test | Units symbol | Ki
NC1=NCN(c2ccc(Br)cc2)C(N)=N1 [R2=H, X=Br, Y=H] | human DHFR (Homo sapiens) | nM | 480
CCCCOc1ccc(C2N=C(N)N=C(N)N2c2ccc(Cl)cc2)cc1 (centres unmarked) [(Ia) R2=p-butyloxyphenyl] | human DHFR (Homo sapiens) | nM | 400
COc1ccc(Oc2cccc(C3N=C(N)N=C(N)N3c3ccc(Cl)cc3)c2)cc1 (centres unmarked) [(Ia) R2=3-(4-methoxyphenoxyl)phenyl] | human DHFR (Homo sapiens) | nM | 830
NC1=NC(c2cccc(OCc3ccccc3)c2)N(c2cccc(Cc3ccccc3)c2)C(N)=N1 (centres unmarked) [R2=3-BnOC6H4, X=H, Y=Bn] | human DHFR (Homo sapiens) | nM | 292
NC1=NCN(c2cccc(Cc3ccccc3)c2)C(N)=N1 [R2=H, X=H, Y=Bn] | human DHFR (Homo sapiens) | nM | 66
NC1=NC(c2ccc(F)cc2)N(c2ccc(Cl)cc2)C(N)=N1 (centres unmarked) [(Ia) R2=p-fluorophenyl] | human DHFR (Homo sapiens) | nM | 10600
COc1ccc(C2N=C(N)N=C(N)N2c2ccc(Cl)cc2)cc1 (centres unmarked) [(Ia) R2=p-methoxyphenyl] | human DHFR (Homo sapiens) | nM | 5530
NC1=NC(c2ccc(Oc3ccccc3)cc2)N(c2ccc(Cl)cc2)C(N)=N1 (centres unmarked) [(Ia) R2=p-phenoxyphenyl] | human DHFR (Homo sapiens) | nM | 1130

====

Reported Ki values for a set of molecules
# Target under test: human DHFR (Homo sapiens, UniProt P00374)
# Construct: made in house; host or cells: E. coli M15
# Test description: Inhibition of human DHFR (I50-derived Ki);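 also: recombinant human DHFR expressed in E. coli and purified by methotrexate affinity chromatography, enzyme activity followed spectrophotometrically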
# Format: biochemical
# Test parameters: Human Ki (I50)(nM), human DHFR
Measurement type: Ki (nM)

Molecule | Measurement type | Observed measurement
NC1=NC(c2cccc(Oc3ccccc3)c2)N(c2ccc(Cl)cc2)C(N)=N1 (stereo not shown) [(Ia) R2=m-phenoxyphenyl] | Ki | 190
NC1=NC(c2cccc(O)c2)N(c2ccc(Cl)cc2)C(N)=N1 (stereo not shown) [(Ia) R2=m-hydroxyphenyl] | Ki | 1680
NC1=NC(c2cccc(OCc3ccccc3)c2)N(c2cccc(OCc3ccccc3)c2)C(N)=N1 (stereo not shown) [R2=3-BnOC6H4, X=H, Y=BnO] | Ki | 2130
CCCCOc1ccc(C2N=C(N)N=C(N)N2c2ccc(OCc3ccccc3)cc2)cc1 (stereo not shown) | Ki | 203

Values compiled from patent US20030203908A1.
